- tgt: CDK1:Cyclin-B (Homo sapiens, UniProt P06493)
- Construct: purchased New England Biolabs, Beverly, Mass; 6020; host or cells: insect cells
- Sequence (P06493 whole entry): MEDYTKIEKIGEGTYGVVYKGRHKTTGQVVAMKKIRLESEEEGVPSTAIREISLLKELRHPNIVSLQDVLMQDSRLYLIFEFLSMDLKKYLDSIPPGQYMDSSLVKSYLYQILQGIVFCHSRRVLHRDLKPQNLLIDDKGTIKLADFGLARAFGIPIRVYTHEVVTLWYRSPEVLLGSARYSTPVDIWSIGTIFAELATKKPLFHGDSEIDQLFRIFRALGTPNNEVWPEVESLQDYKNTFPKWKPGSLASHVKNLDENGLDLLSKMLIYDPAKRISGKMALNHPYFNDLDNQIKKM
- Sequence (P14635 whole entry partner): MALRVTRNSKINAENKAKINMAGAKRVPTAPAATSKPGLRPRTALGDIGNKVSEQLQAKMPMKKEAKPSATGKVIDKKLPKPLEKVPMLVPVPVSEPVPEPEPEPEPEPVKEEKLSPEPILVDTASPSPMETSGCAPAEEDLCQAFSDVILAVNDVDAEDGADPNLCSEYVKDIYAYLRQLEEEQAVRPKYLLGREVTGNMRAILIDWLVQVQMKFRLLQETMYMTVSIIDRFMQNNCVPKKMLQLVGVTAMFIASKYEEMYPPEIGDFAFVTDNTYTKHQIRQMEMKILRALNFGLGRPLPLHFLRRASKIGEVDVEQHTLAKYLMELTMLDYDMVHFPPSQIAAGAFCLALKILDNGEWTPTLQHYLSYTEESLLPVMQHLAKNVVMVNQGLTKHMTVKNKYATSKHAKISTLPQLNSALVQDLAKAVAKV
- measurement.description: CDK1 Screening Assay
- Format: biochemical
- measurement.context: 33P-γ-ATP incorporation, 10 μM ATP
reported.metric: IC50 (µM)
Value expressed in µM; do not type the unit.

Use the examples below as a reference point.
compound | tgt | IC50, µM
c1cnc2[nH]cc(-c3ccnc(NC4CCCCC4)n3)c2c1 [Cpd 13] | CDK1:Cyclin-B (Homo sapiens, UniProt P06493) | 0.014
OCCc1ccc(Nc2nccc(-c3c[nH]c4ncccc34)n2)cc1 [Cpd 1] | CDK1:Cyclin-B (Homo sapiens, UniProt P06493) | 0.019
CC(=O)NC1CCN(c2nccc(-c3c[nH]c4ncccc34)n2)CC1 [Cpd 63] | CDK1:Cyclin-B (Homo sapiens, UniProt P06493) | 2.11
Cc1cc(Br)ccc1Nc1nccc(-c2c[nH]c3ncccc23)n1 [Cpd 41] | CDK1:Cyclin-B (Homo sapiens, UniProt P06493) | 0.0063
CN1CCN(CCc2ccc(Nc3nccc(-c4c[nH]c5ncccc45)n3)c(Cl)c2)CC1 [Cpd 55] | CDK1:Cyclin-B (Homo sapiens, UniProt P06493) | 0.0408
Fc1ccccc1Nc1nccc(-c2c[nH]c3ncccc23)n1 [Cpd 31] | CDK1:Cyclin-B (Homo sapiens, UniProt P06493) | 0.046
CC(=O)N1CCC(Nc2nccc(-c3c[nH]c4ncccc34)n2)CC1 [Cpd 64] | CDK1:Cyclin-B (Homo sapiens, UniProt P06493) | 0.0498
Cc1[nH]c2ncccc2c1-c1ccnc(N[C@H]2CC[C@H](N)CC2)n1 [Cpd 57] | CDK1:Cyclin-B (Homo sapiens, UniProt P06493) | 0.283

Identify IC50 associated with the compound c1cnc2[nH]cc(-c3ccnc(NC4CCNCC4)n3)c2c1 [Cpd 65]
0.0603

Identify IC50 associated with the compound FC(F)(F)c1ccccc1Nc1nccc(-c2c[nH]c3ncccc23)n1 [Cpd 29]
0.056

Identify IC50 associated with the compound N[C@H]1CC[C@H](Nc2nccc(-c3c[nH]c4ncccc34)n2)CC1 [Cpd 42]
0.002

Identify IC50 associated with the compound Cc1cc(CCN2CCN(C)CC2)ccc1Nc1nccc(-c2c[nH]c3ncccc23)n1 [Cpd 51]
0.0026

Identify IC50 associated with the compound c1cnc2[nH]cc(-c3ccnc(NCC4CCCCC4)n3)c2c1 [Cpd 16]
0.151

Identify IC50 associated with the compound c1cnc2[nH]cc(-c3ccnc(Nc4ccc(CCN5CCCC5)cc4)n3)c2c1 [Cpd 19]
0.032

Identify IC50 associated with the compound Cc1cccc(C)c1Nc1nccc(-c2c[nH]c3ncccc23)n1 [Cpd 35]
0.017

Identify IC50 associated with the compound CN(C)CCc1ccc(Nc2nccc(-c3c[nH]c4ncccc34)n2)cc1 [Cpd 23]
0.039

Identify IC50 associated with the compound CNCCn1cc(-c2ccnc(N[C@H]3CC[C@H](O)CC3)n2)c2cccnc21 [Cpd 73]
7.02
